# System name: K16Q ThArsA
# Run description: Photoaffinity labelling with increasing 8-azido[γ-32P]ATP
# Study conditions: read-out: apparent Kd
Readout: Kd (µM)
Answer format: numeric, µM implied, no suffix.

-- ask Provide value of Kd for this record tested with K16Q ThArsA: [N-]=[N+]=Nc1nc2c(N)ncnc2n1[C@@H]1O[C@H](COP(=O)(O)OP(=O)(O)OP(=O)(O)O)[C@@H](O)[C@H]1O [8-azido[γ-32P]ATP, 8-azidoadenosine 5'-[γ-32P]triphosphate]
-- reply 55
